Here, each record is paired with measured viability at 20 µM data.
# measurement_description: Cytotoxicity in mouse B16 cells assessed as cell viability at 20 uM by MTT assay
# Type: cell-based
# settings: read-out: Activity

// worked examples, viability at 20 µM included
# chemical_structure, viability at 20 µM
records = [
    ("O=C(/C=C/c1ccc(O)c(O)c1)N1CCNCC1", "31%"),
    ("O=C(/C=C/c1ccc(O)c(O)c1)NCc1cccc(Cl)c1", "59 to 62%"),
]

Documented viability at 20 µM of COc1ccc(CNC(=O)/C=C/c2ccc(O)c(O)c2)cc1 : 20%

Given item CC(C)(C)OC(=O)N1CCN(C(=O)/C=C/c2ccc(O)c(O)c2)CC1 , the value recorded as its viability at 20 µM is 31%

Reported viability at 20 µM for COc1ccccc1CNC(=O)/C=C/c1ccc(O)c(O)c1 was 20%
